B1: glmS ribozyme (parent)
chain: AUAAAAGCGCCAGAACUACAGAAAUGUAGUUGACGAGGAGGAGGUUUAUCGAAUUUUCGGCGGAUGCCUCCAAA

Variants of: B1
Assay: kcat; higher = faster cleavage; RNA array
Details: with glucosamine-6-phosphate
Fewer inactive variants are shown than the library holds.
kcat for assorted variants
The reply should contain only the number, in s⁻¹.

Record excerpt, results attached:
- A39C U55A: 0.00799
- A53C U57G: 0.000348
- C11A G32A: 1.09e-05

Which kcat is listed for A12C A53G ? 0.0568

Query (variant): U30C C71A ; field requested: kcat 9.39e-05

Can you look up the measured kcat of A15C A52U for me? 0.000104
